Test system: HCT-116 colon
Method Notes: NCI-60 one-dose screen, 48 h
Details: 10 µM
About 83,000 compounds went through this panel and 20% of them were active in at least one assay; those are over-represented in the sample as a whole. Active and inactive are the calls of the source. The calls were made as follows: active = growth percent below 10; inactive = the rest.
Write down one outcome, taken from active, inactive

Task: Recorded call for O=C1OCC2=C1C(c1cccc(Cl)c1)c1cc3c(cc1N2CCO)OCCO3 (stereo unspecified) ?
Output: active

Task: Recorded call for `COc1ccc(/C=C2/CN(C(=O)c3ccccc3F)C/C(=C\c3ccc(OC)cc3)C2=O)cc1` ?
Output: active

Task: Recorded call for `CC1(C)N=C(N)N=C(N)N1c1ccc(CCc2ccccc2)c(Cl)c1` ?
Output: inactive

Task: Recorded call for `O=C(C[n+]1ccccc1)c1ccc2ccccc2c1` ?
Output: inactive

Task: Recorded call for `CCN(CC)CCSCCN(CC)CC` ?
Output: inactive

Task: Recorded call for `N=c1nc(N)ncn1-c1ccccc1` ?
Output: inactive

Task: Recorded call for CC1CN(Cc2ccccc2)C(=O)NC1=O (stereo unspecified) ?
Output: inactive

Task: Recorded call for COc1cc2c(cc1OC)N(CCO)C1=C(C(=O)OC1)C2c1ccc(Cl)c(Cl)c1 (stereo unspecified) ?
Output: inactive

Task: Recorded call for N#CC1=C(Nc2ccccc2Cl)SC(c2ccccc2O)NC1=O (stereo unspecified) ?
Output: inactive

Task: Recorded call for `Cc1ccc(C)c(C(O)(c2cc(C)ccc2C)C2(O)CCCCC2)c1` ?
Output: inactive

Task: Recorded call for `COc1cc(Cl)cc(-c2nn(-c3cccc(NC(=O)c4ccc(N5CCOCC5)c(C(F)(F)F)c4)c3)cc2-c2ccncc2)c1` ?
Output: inactive
